The origin of these recorded values is patent US8461328B2.

Target: JAK1 (Homo sapiens)
Construct: made in house; host or cells: SF9 insect cells (baculovirus)
Assay: JAK1 inhibition (Table 4)
Type: biochemical
Details: read-out: JAK1 Ki
pKi: −log10 of the molar value.
measuredAttribute: pKi

Below are worked cases with known answers.
compound	measuredAttribute	reading
C[C@@H](O)c1nc2cnc3[nH]ccc3c2n1C1CCN(CC(F)F)CC1	pKi	8.17
N#CCCN1CCC(n2c(CNS(=O)(=O)C3CC3)nc3cnc4[nH]ccc4c32)CC1	pKi	7.89
Cc1nc2cnc3[nH]ccc3c2n1C1CCC2CC(=O)NC2C1 (single isomer, unassigned) [Example 112]	pKi	8.39
Cc1nc2cnc3[nH]ccc3c2n1-c1ccc(C#N)cc1	pKi	7.69
N#CCCN1CCC(n2c(CC3CCCO3)nc3cnc4[nH]ccc4c32)CC1 (stereo not shown)	pKi	7.68

1 = Cc1cc(Cc2nc3cnc4[nH]ccc4c3n2C2CCOCC2)on1
2 = O=C([C@H]1CCCN1)N1CCC(n2cnc3cnc4[nH]ccc4c32)CC1
query: Which record would sort first by descending pKi, 1 or 2 ? Your answer should be the label of the entry you select.
result: 1

1 = C[C@@H](O)c1nc2cnc3[nH]ccc3c2n1[C@@H]1CCN(S(C)(=O)=O)C1
2 = CC(C)CC(=O)N[C@H]1CC[C@H](n2cnc3cnc4[nH]ccc4c32)CC1
3 = CC(=O)NCCc1nc2cnc3[nH]ccc3c2n1[C@H]1CCCOC1
4 = O=C(Cc1nc2cnc3[nH]ccc3c2n1C1CCN(Cc2ccccc2)CC1)N1CC(F)(F)C1
5 = C[C@@H](O)c1nc2cnc3[nH]ccc3c2n1C1CCN(Cc2ccnn2C)CC1
query: Ordering criterion: pKi; begin with the maximum. // respond by listing labels in the order requested
result: 2, 3, 5, 4, 1
(2: 8.72, 3: 8.22, 5: 7.96, 4: 7.56, 1: 7.32)

* * *

Target: JAK1 (Homo sapiens, UniProt P23458)
Construct: made in house; host or cells: SF9 insect cells (baculovirus)
Sequence (P23458 852-1154): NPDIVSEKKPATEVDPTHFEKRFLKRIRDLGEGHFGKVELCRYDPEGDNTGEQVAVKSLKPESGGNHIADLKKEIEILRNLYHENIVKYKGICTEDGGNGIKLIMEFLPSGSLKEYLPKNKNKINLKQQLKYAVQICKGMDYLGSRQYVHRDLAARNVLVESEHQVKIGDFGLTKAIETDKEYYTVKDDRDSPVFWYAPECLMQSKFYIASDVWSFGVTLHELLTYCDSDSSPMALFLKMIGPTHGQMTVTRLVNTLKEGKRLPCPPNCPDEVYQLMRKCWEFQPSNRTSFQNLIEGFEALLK
Test: JAK1 inhibition (Table 4)
Type: biochemical
Conditions: read-out: JAK1 Ki
pKi: −log10 of the molar value.
measuredAttribute: pKi

recordSmiles	target	pKi
O=C(Cc1nc2cnc3[nH]ccc3c2n1C1CCN(Cc2ccccc2)CC1)NC1CCCC1	JAK1 (Homo sapiens, UniProt P23458)	8.37
CC(C)(C)OC(=O)N1CCC[C@@H](CN[C@H]2CC[C@H](n3cnc4cnc5[nH]ccc5c43)CC2)C1	JAK1 (Homo sapiens, UniProt P23458)	7.69
c1cnc(CN2CCC(n3cnc4cnc5[nH]ccc5c43)CC2)cn1	JAK1 (Homo sapiens, UniProt P23458)	8.44
Cc1nc2cnc3[nH]ccc3c2n1C1CCS(=O)(=O)CC1	JAK1 (Homo sapiens, UniProt P23458)	6.83
CC(C)(C)OC(=O)N1CCC(n2cnc3cnc4[nH]ccc4c32)CC1	JAK1 (Homo sapiens, UniProt P23458)	7.61
O=S(=O)(c1ccccc1)N1CCC[C@@H](n2cnc3cnc4[nH]ccc4c32)C1	JAK1 (Homo sapiens, UniProt P23458)	7.91

1 = O=C(Cc1nc2cnc3[nH]ccc3c2n1C1CCN(Cc2cccnc2)CC1)N1CCC(F)(F)CC1
2 = COCCN1CCCC[C@H]1C(=O)N1CCC(n2cnc3cnc4[nH]ccc4c32)CC1
query: Looking only at measured pKi, which entry is lower, 1 or 2 ? Your answer should be the label of the entry you select.
result: 2
(2: 6.85, 1: 8.45)
